# Test system: HCT-116
# protocolSummary: NCI tumour cell line growth inhibition, 48 h
Active and inactive are the calls of the source. Rule as the data show it: active = GI50 up to about 1.1 µM and inactive = higher.
Choose the fitting class; nothing outside y for active, n for inactive is accepted.

Some solved entries appear below for comparison.
Cc1cccc(C)c1N1C(=O)C(=O)C(c2nc3ccccc3s2)/C(=N/NC(=O)NN)C1=O (stereo not given) ... n
COc1cc2c(cc1OC)C(=O)Cc1ccc(OC)c(OC)c1CN(C)CC2 ... n
N#Cc1cccc(N2C(=O)c3ccc(C(=O)c4ccc5c(c4)C(=O)N(c4cccc(C#N)c4)C5=O)cc3C2=O)c1 ... n
C=C(Br)C(C)(Br)CCC(Br)C(C)(C)Cl (stereo not given) ... n
Nc1cc2c3c(cccc3c1)C(=O)N(c1ccc(OCCN3CCCC3)cc1)C2=O ... n
O=C(NC(=O)c1ccccc1[N+](=O)[O-])Nc1ccc(Oc2ncc(Br)cn2)c(Cl)c1 ... y
CCc1c(N=[N+]=[N-])c2ccccc2oc1=O ... n
CC(=O)OCC1OC(n2c(C)c(/N=N/c3ccccc3)c(C)c(C#N)c2=S)C(OC(C)=O)C(OC(C)=O)C1OC(C)=O (stereo not given) ... n

Ask | // param item: O=C(O)CCSC(=O)Nc1ccccc1Cl ; yields the recorded call
Reply | n

Ask | Dear all, I need the recorded test outcome for Clc1n[nH]c2ccccc12 , thank you.
Reply | n

----------
# System: DMS-273
# protocolSummary: NCI tumour cell line growth inhibition, 48 h
Active and inactive are the calls of the source. Cut-off read from the data, not from the text of the source: active = GI50 up to about 1.1 µM and inactive = higher.
reportedMetric: GI50

Some entries whose results are on file:
Cn1c(=O)c2c3oc(=O)cc(O)c3c(=O)n3c4ccccc4n(c1=O)c23 ... 31.5 µM (inactive)
COc1ccc2c(c1)[n+]([O-])c(-c1ccccc1)c(N)[n+]2[O-] ... 34.4 µM (inactive)
COc1ccc(C2=NN(c3ccccc3)C[N+](c3ccc(OC)cc3)=N2)cc1 ... 24.5 µM (inactive)
CN1N=C2c3ccccc3CC[C@H]2C1c1ccccc1 (stereo not given in full) ... 26.6 µM (inactive)
c1ccc(CCCC2Sc3cccc4cccc(c34)S2)cc1 ... > 100 µM (inactive)
NC(=O)NNC/C(Cl)=C(\Cl)C(=O)O ... > 100 µM (inactive)
COc1cc2c(cc1O)[C@H](C)C(c1ccc(Cl)cc1)O2 (stereo not given in full) ... 16.5 µM (inactive)
COc1ccc2c(CN3CCCCC3CO)cc3cc(OC)c(OC)cc3c2c1 (stereo not given) ... 2.65 µM (inactive)

Ask | Give the measured GI50 of CC(C)N(C(=O)C12C3C4C1C1C2C3C41C(O)C(C)(C)C)C(C)C (stereo not given) .
Reply | > 50 µM (inactive)

Ask | Requested field: GI50. Item: CC1(c2ccccc2)CC(c2ccccc2)=NO1 (stereo not given)
Reply | > 100 µM (inactive)

----------
# Tested on: K562
# protocolSummary: NCI tumour cell line growth inhibition, 48 h
The source made the active and inactive calls. No stated cut-off is given here; in the data, active = GI50 up to about 1.1 µM and inactive = higher.
Tick one outcome: Yes for active, No for inactive

Worked examples, 4 compounds total:
Nc1nc(N)c2cc(Sc3ccc4nc(N)nc(N)c4c3)ccc2n1 ... Yes
COc1cc(-c2cc(O)c(-c3ccc4ccccc4n3)c(O)n2)cc(OC)c1OC ... No
CC(=O)O[C@H]1CC[C@@]2(C)C(=CC[C@@H]3[C@@H]2CC[C@](C)(c2nnc(C)o2)[C@H]3CC#N)C1 ... No
CN1c2ccccc2N(C)C2C1N(C)c1ccccc1N2C (stereo unspecified) ... No

Ask | Hello, I am checking results. What call was entered for c1ccc(-c2nnn(CCN3CCCCC3)n2)cc1 ?
Reply | No

Ask | Status in this test for CC(=O)Nc1ccc2cc(C#N)c(=O)[nH]c2n1 ?
Reply | No

Ask | Kindly provide the recorded test outcome for the following compound: COc1cc(C=O)cc(/C=N/c2ccccn2)c1O
Reply | No
